Numbers sourced from a melting point compilation (Tetko et al.; mined from patent text by program, amines drawn as free bases though some values may be those of a salt).

Endpoint label: melting point

Compound	Endpoint label	Observed measurement
O=[N+]([O-])c1cccn2nc(SCc3ccccc3)nc12	melting point	125 to 126 °C
CC(C)(C)OC(=O)Nc1cc(N2CCC(OCCOC3CCCCO3)CC2)c(-c2ccc(F)cc2)cc1NC(=O)CC(=O)c1cccc(-n2ccnc2)c1 (racemic)	melting point	57 to 58 °C
CC1=CC(=O)C(C)=C2CC(C)(C)N=C12	melting point	107 to 109 °C

----------
List of melting point values.
Endpoint label: melting point

Molecule	Observed measurement
CNc1nc(-c2ccc(Cl)c(Cl)c2)ncc1N(C)C(=O)N1CCOCC1	227 °C
O=C(CN1C(=O)CC1S(=O)c1ccccc1)NCCCCCCc1ccc(Cl)cc1 (stereo unspecified)	113 to 115 °C
CCn1cc(C(=O)O)c(=O)c2cc(Cl)c(N3CCN(CCO)CC3)cc21	215 °C
O=C1OCCC1Oc1ccc(C(F)(F)F)cc1 (stereo unspecified)	84 to 86 °C
CS(=O)(=O)NCCn1c(=O)[nH]c2ccccc21	162 to 170 °C
Cc1cnc2n1-c1ccc(Cl)cc1C(c1ccccc1Cl)=NC2	148 to 149 °C

----------
Item-by-item account of melting point
Endpoint label: melting point

Compound	Observed measurement
CCCCCC(=O)n1c(N)nc2ccccc21	200 °C
O=C(Nc1ccc(-n2nc(C(F)(F)F)cc2C(F)(F)F)cc1)c1ccncc1	156 to 157 °C
CCOC(=O)CCCn1cc(-c2cccnc2)c2cc([N+](=O)[O-])ccc21	76 to 78 °C
Nc1ccc(C(=O)Nc2ccc(N)cc2Cl)cc1	194 to 197 °C
CC1(C)CS(=O)(=O)c2sc(S(N)(=O)=O)cc2C1O (stereo unspecified)	172 to 174 °C
CCCCCCNC(=O)c1ccc(N2N=C(C)C(=CNc3ccccc3CC)C2=O)cc1	62.1 °C

----------
melting point reference

Compound	melting point
COC(=O)CC=Cc1c(C(C)C)cc(C(C)C)cc1C(C)C	61 to 63 °C
Cn1nnc(-c2ccc3c(c2)c(C2CCN(CCN4CCNC4=O)CC2)cn3-c2ccncc2)n1	204 to 206 °C
CC(C)(C)NC(=O)c1ccc(I)cc1	149 to 150 °C
Cc1cc2ccccc2n1-c1ccc(F)cc1	43 °C
Oc1nc(-c2ccccc2)sc1CCc1ccccc1	127 to 128 °C
CNC(=O)Nc1snc(N2CCCC2)c1C#N	239 °C
CN1CCC(OC(=O)c2ccccc2Nc2ccnc3cc(C(F)(F)F)ccc23)CC1	116 °C
COc1cc(Cl)nc(NC(=O)NS(=O)(=O)c2ccccc2-c2nnnn2C)n1	225 to 227 °C
CCCC(=O)NC1=CC(=O)c2ccc(C)nc2C1=O	188 to 189 °C
Cn1ncc(N(CCCO)Cc2ccccc2)c(Cl)c1=O	94 to 95 °C
CC(C)c1cn2ccccc2c1S(=O)(=O)c1ccc(OCCCN2CCN(c3ccccc3)CC2)cc1	135 to 136 °C
O=C(NO)NCCCCC1CCSS1 (stereo unspecified)	100 to 101 °C
CNc1cc2c(cc1C)c(=O)c(C(=O)O)cn2-c1cc(N)c(F)cc1F	> 280 °C
CCc1nnc(-c2ccc(OC)cc2)n1-c1ccc(OC)cc1	122 °C
O=c1oc2ccccc2cc1CCN1CCC(Nc2nc3ccccc3n2Cc2cccs2)CC1	165 °C
CCC(=O)C1C(=O)CC(c2ccc(C3CC(=O)C(C(=O)CC)C(=O)C3)cc2)CC1=O (stereo unspecified)	261 °C
O=C(O)C(Sc1ccc(Cl)cc1)c1ccc(Oc2ccccc2)cc1 (stereo unspecified)	121 to 125 °C
COC(=O)c1ccc([N+](=O)[O-])cc1S(=O)(=O)O	92 to 94 °C
CN(Cc1ccc2c(Br)c(O)ccc2c1)C(=O)c1oc2ccccc2c1CCc1ccccc1	108 to 110 °C
CCCOC(=O)C(C)Oc1ccc(Oc2cnc3cc(Cl)ccc3n2)cc1F (stereo unspecified)	70 to 72 °C
NC(=O)C(Nc1ccc(I)cc1)c1ccccc1 (stereo unspecified)	134 to 137 °C
